Data provenance is patent US20220153746A1.

# Measurement protocol: PK Phase (Group 2): plasma concentrations and pharmacokinetics of Compound 18 and its metabolite Compound 4 after once daily ocular instillation of Compound 18 nanosuspension for 7 days
# Type: in vivo, New Zealand white rabbits
# Run parameters: male, New Zealand white, rabbit, plasma, topical or ocular, 0.8 mg/kg, plasma, Day 7, Compound 18 0.8 mg/kg ocular instillation; animal 207666

{"columns": ["Molecule smiles", "Cmax, ng/mL"],
 "data": [
  ["CCCc1nn(C)c2c(=O)[nH]c(-c3cc(S(=O)(=O)N4CC(CCCO)C4)ccc3OCC)nc12", 0.851],
  ["CCCc1nn(C)c2c(=O)[nH]c(-c3cc(S(=O)(=O)N4CC(CCCO[N+](=O)[O-])C4)ccc3OCC)nc12", 0.163]
]}
